Assign pIC50 to each entry below.
- Test system: MCF7
- assay.name: Cytotoxicity against human MCF7 cells after 48 hrs by SRB assay
- Format: functional, cell-based
- test.conditions: MCF7, 48 h
pIC50: −log10 of the molar value.

Request: // lookup pIC50 | system=MCF7 | key= C[C@H]1O[C@@H](O[C@H]2CC[C@@]3(C)[C@@H](CC[C@]4(C)[C@@H]3C=C[C@]35OC[C@@]6(CCC(C)(C)C[C@H]63)[C@@H](O)C[C@]54C)[C@]2(C)CO)[C@H](O)[C@@H](O[C@@H]2O[C@H](CO)[C@@H](O)[C@H](O[C@@H]3O[C@H](CO)[C@@H](O)[C@H](O)[C@H]3O[C@@H]3O[C@H](CO)[C@@H](O)[C@H](O)[C@H]3O)[C@H]2O)[C@H]1O [SONGAROSAPONIN D]
Result: < 4.30

Request: // lookup pIC50 | system=MCF7 | key= C[C@H]1O[C@@H](O[C@H]2CC[C@@]3(C)[C@@H](CC[C@]4(C)[C@@H]3C=C[C@]35OC[C@@]6(CCC(C)(C)C[C@H]63)[C@@H](O)C[C@]54C)[C@]2(C)CO)[C@H](O)[C@@H](O[C@@H]2O[C@H](CO)[C@@H](O)[C@H](O)[C@H]2O)[C@H]1O [SAIKOSAPONIN A]
Result: < 4.30

Request: // lookup pIC50 | system=MCF7 | key= CC(=O)O[C@H]1C(=O)[C@@]2(C)[C@H]([C@H](OC(=O)c3ccccc3)[C@]3(O)C[C@H](OC(=O)[C@H](O)[C@@H](NC(=O)c4ccccc4)c4ccccc4)C(C)=C1C3(C)C)[C@]1(OC(C)=O)CO[C@@H]1C[C@@H]2O [PACLITAXEL]
Result: 7.10

---

- Test system: COR-L23
- assay.name: Cytotoxicity against human COR-L23 cells after 48 hrs by SRB assay
- Assay type: functional, cell-based
- test.conditions: COR-L23, 48 h
Assign pIC50 to each entry below.
pIC50 here: minus log base 10 of the concentration, concentration in moles per litre.

Request: Look up pIC50: C[C@H]1O[C@@H](O[C@H]2CC[C@@]3(C)[C@@H](CC[C@]4(C)[C@@H]3C=C[C@]35OC[C@@]6(CCC(C)(C)C[C@H]63)[C@@H](O)C[C@]54C)[C@]2(C)CO)[C@H](O[C@@H]2O[C@H](CO)[C@@H](O)[C@H](O)[C@H]2O)[C@@H](O[C@@H]2O[C@H](CO)[C@@H](O)[C@H](O)[C@H]2O)[C@H]1O
Result: 6.40

Request: Look up pIC50: C[C@H]1O[C@@H](O[C@H]2CC[C@@]3(C)[C@@H](CC[C@]4(C)[C@@H]3C=C[C@]35OC[C@@]6(CCC(C)(C)C[C@H]63)[C@@H](O)C[C@]54C)[C@]2(C)CO)[C@H](O)[C@@H](O[C@@H]2O[C@H](CO)[C@@H](O)[C@H](O)[C@H]2O)[C@H]1O
Result: 6.22

Request: Look up pIC50: C[C@H]1O[C@@H](O[C@H]2CC[C@@]3(C)[C@@H](CC[C@]4(C)[C@@H]3C=C[C@]35OC[C@@]6(CCC(C)(C)C[C@H]63)[C@@H](O)C[C@]54C)[C@]2(C)CO)[C@H](O)[C@@H](O[C@@H]2O[C@H](CO)[C@@H](O)[C@H](O[C@@H]3O[C@H](CO)[C@@H](O)[C@H](O)[C@H]3O[C@@H]3O[C@H](CO)[C@@H](O)[C@H](O)[C@H]3O)[C@H]2O)[C@H]1O
Result: 6.40

Request: Look up pIC50: CC[C@]1(O)C[C@@H]2CN(CCc3c([nH]c4ccccc34)[C@@](C(=O)OC)(c3cc4c(cc3OC)N(C)[C@H]3[C@@](O)(C(=O)OC)[C@H](OC(C)=O)[C@]5(CC)C=CCN6CC[C@]43[C@@H]65)C2)C1.O=S(=O)(O)O [VINBLASTINE SULFATE]
Result: 4.34
